# IC50 listing for each entry below
target: APC (303–739) (Homo sapiens, UniProt P25054)
Sequence (P25054 303-739): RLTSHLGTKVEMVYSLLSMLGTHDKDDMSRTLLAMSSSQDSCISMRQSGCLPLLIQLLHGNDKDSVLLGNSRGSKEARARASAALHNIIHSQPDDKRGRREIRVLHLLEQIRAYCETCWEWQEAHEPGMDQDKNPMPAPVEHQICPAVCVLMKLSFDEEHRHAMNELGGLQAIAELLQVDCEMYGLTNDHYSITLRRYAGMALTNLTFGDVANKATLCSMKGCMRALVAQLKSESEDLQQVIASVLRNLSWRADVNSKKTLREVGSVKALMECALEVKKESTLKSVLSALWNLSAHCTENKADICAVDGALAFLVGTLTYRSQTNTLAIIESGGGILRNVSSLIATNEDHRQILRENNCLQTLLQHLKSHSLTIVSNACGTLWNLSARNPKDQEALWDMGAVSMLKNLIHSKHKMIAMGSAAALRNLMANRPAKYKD
assay-info: FP competitive assay using tracer 7
Format: binding
reported-conditions: Repeat 3; Table 3 source data; read-out: IC50(μM) Repeat 3
Method: FITC-labeled tracer peptides were obtained from Changzhou Kanglong Biotech Ltd. (Changzhou, Jiangsu, China). […]. The FP signal changes upon tracer binding were measured after 1.5 h of incubation using a Synergy neo microplate reader (BioTek Instruments, Inc.) and plotted against the protein concentration. […] The FP signals were measured after 1.5 h of incubation at room temperature using a Synergy neo microplate reader. […]
Where a SMILES comes first, the peptide text is derived from it. The star is where a group is joined. Cyclohexanecarbonyl = O=C(C1CCCCC1)*; Cyclopentanecarbonyl = O=C(C1CCCC1)*; Pyrrole(1-Me-2-CO) = Cn1cccc1C(=O)*; Isonicotinoyl = O=C(c1ccncc1)*; Pyrrole2CO = O=C(c1ccc[nH]1)*; Nicotinoyl = O=C(c1cccnc1)*; Picolinoyl = O=C(c1ccccn1)*; X2 = O=C(c1cncs1)*
The reply should be a number in µM, with the unit left off.

Observe how each entry below is paired with its result.
Ask: Could you please provide reported IC50 for CC(C)C[C@H](NC(=O)[C@H](CO)NC(=O)[C@H](CCC(=O)O)NC(=O)CNC(=O)[C@H](C)NC(=O)C1CCCCC1)C(=O)N[C@@H](Cc1ccc(O)cc1)C(=O)N[C@@H](CCC(=O)O)C(N)=O [MAI-504] (Cyclohexanecarbonyl-AGESLYE-NH2) ? Thanks!
Result: 1.59

Ask: Could you please provide reported IC50 for CC(C)C[C@H](NC(=O)[C@H](CO)NC(=O)[C@H](CCC(=O)O)NC(=O)CNC(=O)[C@H](C)NC(=O)c1cncs1)C(=O)N[C@@H](Cc1ccc(O)cc1)C(=O)N[C@@H](CCC(=O)O)C(N)=O [MAI-508] (X2-AGESLYE-NH2) ? Thanks!
Result: 0.241

Ask: Could you please provide reported IC50 for CC(C)C[C@H](NC(=O)[C@H](CO)NC(=O)[C@H](CCC(=O)O)NC(=O)CNC(=O)[C@H](C)NC(=O)c1ccccn1)C(=O)N[C@@H](Cc1ccc(O)cc1)C(=O)N[C@@H](CCC(=O)O)C(N)=O [MAI-512] (Picolinoyl-AGESLYE-NH2) ? Thanks!
Result: 0.93

Ask: Could you please provide reported IC50 for CC(C)C[C@H](NC(=O)[C@H](CO)NC(=O)[C@H](CCC(=O)O)NC(=O)CNC(=O)[C@H](C)NC(=O)C1CCCC1)C(=O)N[C@@H](Cc1ccc(O)cc1)C(=O)N[C@@H](CCC(=O)O)C(N)=O [MAI-503] (Cyclopentanecarbonyl-AGESLYE-NH2) ? Thanks!
Result: 5.07

Ask: Could you please provide reported IC50 for CC(C)C[C@H](NC(=O)[C@H](CO)NC(=O)[C@H](CCC(=O)O)NC(=O)CNC(=O)[C@H](C)NC(=O)c1ccncc1)C(=O)N[C@@H](Cc1ccc(O)cc1)C(=O)N[C@@H](CCC(=O)O)C(N)=O [MAI-514] (Isonicotinoyl-AGESLYE-NH2) ? Thanks!
Result: 0.0999

---
Ask: Could you please provide reported IC50 for CC(C)C[C@H](NC(=O)[C@H](CO)NC(=O)[C@H](CCC(=O)O)NC(=O)CNC(=O)[C@H](C)NC(=O)c1cccnc1)C(=O)N[C@@H](Cc1ccc(O)cc1)C(=O)N[C@@H](CCC(=O)O)C(N)=O [MAI-513] (Nicotinoyl-AGESLYE-NH2) ? Thanks!
Result: 0.318

Ask: Could you please provide reported IC50 for CC(C)C[C@H](NC(=O)[C@H](CO)NC(=O)[C@H](CCC(=O)O)NC(=O)CNC(=O)[C@H](C)NC(=O)c1cccn1C)C(=O)N[C@@H](Cc1ccc(O)cc1)C(=O)N[C@@H](CCC(=O)O)C(N)=O [MAI-510] ({Pyrrole(1-Me-2-CO)}-AGESLYE-NH2) ? Thanks!
Result: 0.303

Ask: Could you please provide reported IC50 for CC(C)C[C@H](NC(=O)[C@H](CO)NC(=O)[C@H](CCC(=O)O)NC(=O)CNC(=O)[C@H](C)NC(=O)c1ccc[nH]1)C(=O)N[C@@H](Cc1ccc(O)cc1)C(=O)N[C@@H](CCC(=O)O)C(N)=O [MAI-509] (Pyrrole2CO-AGESLYE-NH2) ? Thanks!
Result: 0.599
